biological target: GTPase KRas (G12D) (Homo sapiens, UniProt P01116, G12D); assay: KRAS-GTP Protein Assay
Sequence (P01116 whole entry G12D): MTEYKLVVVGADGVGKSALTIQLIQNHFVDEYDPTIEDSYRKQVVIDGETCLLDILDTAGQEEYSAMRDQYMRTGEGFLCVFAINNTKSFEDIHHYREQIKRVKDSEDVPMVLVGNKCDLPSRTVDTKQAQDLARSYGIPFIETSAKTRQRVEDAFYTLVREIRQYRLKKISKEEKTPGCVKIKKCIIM
measured_parameter: IC50

• O=C1CCCCc2c(F)ccc3cc(O)cc(c23)-c2c(cc3c(N4CC5CCC(C4)N5)nc(OC[C@@]45CCCN4C[C@H](F)C5)nc3c2F)N1 = 3.5 nM
• Oc1cc2c3c(c(F)ccc3c1)CCCCNc1cc3c(N4CC5CCC(C4)N5)nc(OC[C@@]45CCCN4C[C@H](F)C5)nc3c(F)c1-2 = 3.23 nM
• CN1CCCCc2c(F)ccc3cc(O)cc(c23)-c2c1cc1c(N3CC4CCC(C3)N4)nc(OC[C@@]34CCCN3C[C@H](F)C4)nc1c2F = 3.24 nM
• Oc1cc2c3c(c(F)ccc3c1)CCCCCNc1cc3c(N4CC5CCC(C4)N5)nc(OC[C@@]45CCCN4C[C@H](F)C5)nc3c(F)c1-2 = 2.63 nM

====

Below: a set of entries, each annotated with reported pIC50.
target: GTPase KRas (G12D) (Homo sapiens, UniProt P01116, G12D); test: KRAS-GDP Protein Assay
pIC50: −log10 of the molar value.
measured_parameter: pIC50

- O=C1CCCCc2c(F)ccc3cc(O)cc(c23)-c2c(cc3c(N4CC5CCC(C4)N5)nc(OC[C@@]45CCCN4C[C@H](F)C5)nc3c2F)N1 [US20260049089, Example 4]: 8.66
- Oc1cc2c3c(c(F)ccc3c1)CCCCCNc1cc3c(N4CC5CCC(C4)N5)nc(OC[C@@]45CCCN4C[C@H](F)C5)nc3c(F)c1-2 [US20260049089, Example 5]: 8.69
- Oc1cc2c3c(c(F)ccc3c1)CCCCNc1cc3c(N4CC5CCC(C4)N5)nc(OC[C@@]45CCCN4C[C@H](F)C5)nc3c(F)c1-2 [US20260049089, Example 2]: 8.54
- CN1CCCCc2c(F)ccc3cc(O)cc(c23)-c2c1cc1c(N3CC4CCC(C3)N4)nc(OC[C@@]34CCCN3C[C@H](F)C4)nc1c2F [US20260049089, Example 3]: 8.64
